# reported melting point; entries follow

Examples from the recorded data:
- Brc1ccc(-c2cnc(COCc3cc4ccccc4o3)o2)cc1: 80 to 82 °C
- CCOC(=O)c1ncn(S(=O)(=O)N(C)C)n1: 78.5 to 81.5 °C
- N#CCc1cccc2c(-c3ccc(Cl)cc3)onc12: 165 to 169 °C
- CS(=O)(=O)NC1CCN(c2ccc(C#N)c3ccccc23)C1 (stereo unspecified): 128 to 129 °C

Incoming: # lookup: melting point of C=CCc1ccc(OCCC(C)C)c2c(=O)cc(-c3nnnn3Cc3ccccc3)oc12
Outgoing: 92.5 to 94 °C

Incoming: # lookup: melting point of CCCN(C(=O)CCl)[C@@H]1CCc2cc3c(cc2[C@H]1O)OCC3 (relative stereo)
Outgoing: 65 to 70 °C

Incoming: # lookup: melting point of N#Cc1ccc2c(c1)Sc1ccccc1O2
Outgoing: 215 °C

Incoming: # lookup: melting point of COC(=O)C(C)c1ccc2c(c1)Cc1cc([N+](=O)[O-])ccc1-2 (stereo unspecified)
Outgoing: 105 to 107 °C

Incoming: # lookup: melting point of O=C(O)C(Sc1nc2ccc(Cl)nc2s1)c1ccccc1 (stereo unspecified)
Outgoing: 175 to 177 °C

Incoming: # lookup: melting point of CCOC(=O)c1cc(C)nn1C
Outgoing: 150 to 154 °C

Incoming: # lookup: melting point of O=C1CCC(N2Cc3c(OCc4ccc(CN5CCN(C(=O)C6CC6)CC5)cc4)cccc3C2=O)C(=O)N1 (stereo unspecified)
Outgoing: 233 to 235 °C

---

value-kind: melting point

- CNc1ccc(-c2c[nH]cn2)cc1: 75 to 76 °C
- O=C(Nc1ccc(-c2cnc(-c3ccc(NC(=O)c4c(F)c(F)c(F)c(F)c4F)cc3)[nH]2)cc1)c1cccnc1: 265 to 266 °C
- O=C(O)Cc1ccc2c(c1)CC(CNS(=O)(=O)c1ccc3ccccc3c1)C2 (stereo not given): 180 to 182 °C

Incoming: # lookup: melting point of CCC12CCC3c4ccc(OC)cc4CCC3C1CCC2O (stereo not given)
Outgoing: 126 to 130 °C

Incoming: # lookup: melting point of Clc1ccc(-c2nc(Cc3nnn[nH]3)c(-c3ccccc3)s2)cc1
Outgoing: 213 to 214 °C

Incoming: # lookup: melting point of CC(C)=C1C(=O)N(c2cccc3c(N)cccc23)C(=O)/C1=C(\C)c1cc(-c2ccccc2)sc1C
Outgoing: 155 to 158 °C

Incoming: # lookup: melting point of CC1(C)Oc2ccc(S(=O)(=O)C(F)(F)F)cc2[C@@H](n2ccccc2=O)[C@@H]1O (relative stereo)
Outgoing: 219 to 220 °C

Incoming: # lookup: melting point of CCOC(=O)c1c(NC2CC(C)(C)NC(C)(C)C2)cc(C)nc1C
Outgoing: 89 to 90 °C

Incoming: # lookup: melting point of O=C(O)c1ccc(C(=O)O)c(O)c1
Outgoing: > 300 °C

Incoming: # lookup: melting point of Fc1cccc(-c2cn([C@H]3CN4CCC3CC4)nn2)c1
Outgoing: 120 °C

---

# reported melting point; entries follow

• Cc1noc(C)c1-c1ccc(OC2SCC(O)C(O)C2O)c(F)c1 (stereo not given) = 140 °C
• Cc1cc(I)ccc1Nc1c(-c2nnc(S)o2)ccc(F)c1F = 232 to 233 °C
• CCCCCCCCc1ccccc1CCC(NC(C)=O)(C(=O)OCC)C(=O)OCC = 37 to 38 °C
• Cc1ccc(NC(=O)C(=O)N2CCC(Cc3ccc(F)cc3)CC2)cc1 = 125 to 126 °C
• O=C(Cl)N(c1ccc(F)cc1)c1ccc(F)cc1 = 53 to 54 °C
• CCCc1ccc(OC(C)=O)c(C2(OC(C)=O)C(=O)c3ccccc3C2=O)c1 = 108 to 111 °C
• COc1ccc(C=CC(=O)Nc2ccc(C(C)(C)C)cc2)cc1 = 158 to 160 °C
• CS(=O)(=O)c1ccc(-c2[nH]nc3c2-c2ccccc2CC3)cc1 = 178 to 180 °C
• OC1CSC(Oc2ccc(-c3ccsc3)nc2)C(O)C1O (stereo not given) = 154 °C

Incoming: # lookup: melting point of CC(C)N(CCNc1ccc([N+](=O)[O-])c2ccccc12)C(C)C
Outgoing: 63 to 64 °C

---

value-kind: melting point

Examples from the recorded data:
* COc1ccc(CCc2ccc(NC(=O)C(=O)c3sc4ccccc4c3O)cc2)cc1OC | 203 °C
* CC(C)CC1=CC(c2cccc([N+](=O)[O-])c2)C2=C(CCCC2=O)N1 (centres undefined) | 158 to 160 °C
* CCOC(=O)NC[C@H]1CN(c2ccc3c(c2)CCCc2cnoc2-3)C(=O)O1 | 181 to 183 °C
* CC1Cc2cc3c(cc2C1=O)C(C)(C)CCC3(C)C (centres undefined) | 74 to 75.5 °C
* C[C@@H](Nc1ncnc2[nH]c(-c3ccc(CNC(=O)CN4CCCCC4)cc3)cc12)c1ccccc1 | 194 to 196 °C

Incoming: # lookup: melting point of O=C(O)c1cc([N+](=O)[O-])ccc1C1SCCCS1
Outgoing: 192 to 194 °C

Incoming: # lookup: melting point of COc1ccc(CNc2nnc(-n3ccc(=O)cc3)c3ccc(C#N)cc23)cc1Cl
Outgoing: 218 to 219 °C

Incoming: # lookup: melting point of C#CCNC(=O)c1ccccc1Nc1nc(Cl)ncc1Cl
Outgoing: 188 to 191 °C

Incoming: # lookup: melting point of CCN1c2ncc(COc3cccc(C(=O)O)c3)cc2C(=O)N(C)c2ccc(Cl)nc21
Outgoing: 181 to 182 °C

---

value-kind: melting point

Examples from the recorded data:
* Cc1nnsc1NC(=O)Nc1ccc(-n2nc(C(F)(F)F)cc2C2CC2)cc1 | 124 to 128 °C
* CN(c1ccccc1)N1C(=O)C(Cl)=C(c2ccc(Cl)cc2)C1=O | 155 to 157 °C
* O=c1[nH]c2ccccc2c(=O)n1C1CCN(Cc2ccccc2)CC1 | 223 °C
* CC1CC(=O)NN=C1c1ccc(NCCN)c(N)c1 (centres undefined) | 176 to 177 °C
* COC(=O)CCc1ccc(N2CCN(CCCCC#N)C2=O)cc1 | 99 to 101 °C

Incoming: # lookup: melting point of CCOc1nn(Cc2ccc(OCCc3nc(-c4ccccc4)oc3C)cc2)cc1CCC(=O)O
Outgoing: 142 to 143 °C

Incoming: # lookup: melting point of CCCc1c(O[C@H]2CCC[C@H](Oc3ccc(C(=O)CCC(=O)O)cc3)C2)ccc(C(C)=O)c1O (relative stereo)
Outgoing: 90 to 94 °C

Incoming: # lookup: melting point of COC(=O)Cc1ccc(CNC(=O)C2Cc3ccccc3N2S(=O)(=O)c2ccc(-c3cccc(C(F)(F)F)c3)cc2)cc1 (centres undefined)
Outgoing: 74 °C

Incoming: # lookup: melting point of CCCNc1nc(=O)n(CC2CC2)c2nc(C(C)C)[nH]c12
Outgoing: 208 to 210 °C

Incoming: # lookup: melting point of CC(C)(C)OC(=O)Nc1cccc(-c2nc(=O)o[nH]2)c1
Outgoing: 193 °C

Incoming: # lookup: melting point of CCOC(=O)C1=C(CS(=O)CCN)NC(C)=C(C(=O)OC)C1c1cccc([N+](=O)[O-])c1 (centres undefined)
Outgoing: 170 to 172 °C

Incoming: # lookup: melting point of CSC1CC(=O)N1CC(=O)c1ccccc1 (centres undefined)
Outgoing: 43 to 45 °C

Incoming: # lookup: melting point of CC(C)Oc1ccc(CCCOc2cc(CCC(=O)O)n(-c3ccccc3)n2)c(Oc2ccc(C(F)(F)F)cn2)c1
Outgoing: 80 to 82 °C

---

# reported melting point; entries follow

Examples from the recorded data:
- N#Cc1cc(N)ccc1N1CCN(C2CCSCC2)CC1: 109 °C
- CC(C)c1cccc(C(C)C)c1NC(=O)C1c2ccccc2OCc2nc(Br)ccc21 (stereo not given): 151 to 153 °C
- CC(C)(C)c1cc(CN=[N+]=[N-])nn1-c1ccc(S(C)(=O)=O)cc1: 115 to 117 °C
- COC(=O)C(=O)c1c(Cl)cc(OCCOc2ccc3ccccc3c2)cc1Cl: 142 to 144 °C
- OCc1cnc2cc(F)ccc2c1O: 295 to 300 °C

Incoming: # lookup: melting point of CCC(C)(C)Nc1c(-c2ccc(OC)cc2)c(=O)c1=O
Outgoing: 133 to 135 °C

Incoming: # lookup: melting point of Cc1c(N2CCC(C3(N)CCC3)C2)c(F)cc2c(=O)c(C(=O)O)cn([C@@H]3C[C@@H]3F)c12 (stereo not given in full)
Outgoing: 140 to 143 °C

Incoming: # lookup: melting point of Cc1[nH]c(=O)c(C#N)cc1-c1ccc2nccn2c1
Outgoing: > 300 °C

Incoming: # lookup: melting point of CCO/N=C1\CCc2ccccc2C1=Cc1ccc(S(C)(=O)=O)cc1
Outgoing: 151 to 152 °C

Incoming: # lookup: melting point of Cc1ccc(S(=O)(=O)C(CCCCCOc2ccc(Cl)cc2)C(=O)O)cc1 (stereo not given)
Outgoing: 88 to 90 °C
